Source listed as ChEMBL document CHEMBL1156317.

So I've got a bunch of molecules here, and I need their half-life values.
- MEASUREMENT_DESCRIPTION: Half life in rat at 10 mg/kg, po and 2 mg/kg, iv
- Type: ADME, organism-based
- STATED_CONDITIONS: in vivo
Provide the measurement as a number trailed by its unit.

Which half-life is listed for Cc1ccc(-n2nccn2)c(C(=O)N2CC3CC(C2)N(c2ncc4ccccc4n2)C3)c1 (single isomer, unassigned; enantiomer B) ? 42 min

Which half-life is listed for Cc1ccc(-n2nccn2)c(C(=O)N2CCCN(c3ncc4ccccc4n3)CC2)c1 ? 18 min

====

So I've got a bunch of compounds here, and I need their AUC(0-t) at 24 h values.
- MEASUREMENT_DESCRIPTION: AUC (0 to 24 hrs) in dog
- Type: ADME, organism-based, Canis lupus familiaris
- Parameters: time < 24 hr
- STATED_CONDITIONS: plasma
Supply the numeric figure in µM·h, leaving out any unit text.

Which AUC(0-t) at 24 h is listed for Cc1ccc(-n2nccn2)c(C(=O)N2CCCN(c3ncc4ccccc4n3)CC2)c1 ? 0.44

Which AUC(0-t) at 24 h is listed for Cc1ccc(-n2nccn2)c(C(=O)N2CC3CC(C2)N(c2ncc4ccccc4n2)C3)c1 (single isomer, unassigned; enantiomer B) ? 0.49

====

- ASSAYED_SYSTEM: Orexin/Hypocretin receptor type 1 (Homo sapiens)
- Sequence (O43613 whole entry): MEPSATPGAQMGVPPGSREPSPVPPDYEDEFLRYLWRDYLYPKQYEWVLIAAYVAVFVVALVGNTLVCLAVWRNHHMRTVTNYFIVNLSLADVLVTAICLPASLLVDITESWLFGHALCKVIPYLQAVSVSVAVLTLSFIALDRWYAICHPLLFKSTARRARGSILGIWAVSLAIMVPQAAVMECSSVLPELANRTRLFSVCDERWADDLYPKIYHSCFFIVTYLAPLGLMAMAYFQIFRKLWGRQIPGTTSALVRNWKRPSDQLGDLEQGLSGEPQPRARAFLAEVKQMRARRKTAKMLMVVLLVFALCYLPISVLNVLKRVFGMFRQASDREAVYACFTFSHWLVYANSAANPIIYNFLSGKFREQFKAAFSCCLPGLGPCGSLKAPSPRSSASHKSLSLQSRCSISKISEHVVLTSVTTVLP
ENDPOINT: log10 Ki (log10 of the value in nM)
Annotation: log10 of Ki, nM basis.

Which log10 Ki is listed for Cc1ccc(-n2nccn2)c(C(=O)N2CC3CC(C2)N(c2ncc4ccccc4n2)C3)c1 (single isomer, unassigned; enantiomer B) ? -0.15

Which log10 Ki is listed for Cc1ccc(-n2nccn2)c(C(=O)N2CCC3CC2CN3c2ncc3cc(F)ccc3n2)c1 (racemic) ? 2.94

Which log10 Ki is listed for Cc1ccc(-n2nccn2)c(C(=O)N2CCCN(c3ncc4cc(F)ccc4n3)CC2)c1 ? 0.00

Which log10 Ki is listed for Cc1ccc(-n2nccn2)c(C(=O)N2CC3CC2CN(c2ncc4ccccc4n2)C3)c1 (stereo not given) ? 1.08

Which log10 Ki is listed for Cc1ccc(-n2nccn2)c(C(=O)N2CC3CC2CCN3c2ncc3cc(F)ccc3n2)c1 (racemic) ? 3.23

====

So I've got a bunch of compounds here, and I need their concentration at 0.5 h values.
- MEASUREMENT_DESCRIPTION: Drug level in Sprague-Dawley rat brain at 2 mg/kg, iv after 30 mins
- Format: ADME, organism-based
- Design: dose 2 mg/kg, route intravenous
- STATED_CONDITIONS: read-out: Drug uptake
Supply the numeric figure in nM, leaving out any unit text.

Which concentration at 0.5 h is listed for Cc1ccc(-n2nccn2)c(C(=O)N2CC3CC(C2)N(c2ncc4ccccc4n2)C3)c1 (single isomer, unassigned; enantiomer B) ? 690

Which concentration at 0.5 h is listed for Cc1ccc(-n2nccn2)c(C(=O)N2CCCN(c3ncc4ccccc4n3)CC2)c1 ? 462
